As shown below, each of these compounds has a reported IC50 value.
# TARGET OR SYSTEM: PBP3 (Pseudomonas aeruginosa, UniProt G3XD46)
# Sequence (G3XD46 whole entry): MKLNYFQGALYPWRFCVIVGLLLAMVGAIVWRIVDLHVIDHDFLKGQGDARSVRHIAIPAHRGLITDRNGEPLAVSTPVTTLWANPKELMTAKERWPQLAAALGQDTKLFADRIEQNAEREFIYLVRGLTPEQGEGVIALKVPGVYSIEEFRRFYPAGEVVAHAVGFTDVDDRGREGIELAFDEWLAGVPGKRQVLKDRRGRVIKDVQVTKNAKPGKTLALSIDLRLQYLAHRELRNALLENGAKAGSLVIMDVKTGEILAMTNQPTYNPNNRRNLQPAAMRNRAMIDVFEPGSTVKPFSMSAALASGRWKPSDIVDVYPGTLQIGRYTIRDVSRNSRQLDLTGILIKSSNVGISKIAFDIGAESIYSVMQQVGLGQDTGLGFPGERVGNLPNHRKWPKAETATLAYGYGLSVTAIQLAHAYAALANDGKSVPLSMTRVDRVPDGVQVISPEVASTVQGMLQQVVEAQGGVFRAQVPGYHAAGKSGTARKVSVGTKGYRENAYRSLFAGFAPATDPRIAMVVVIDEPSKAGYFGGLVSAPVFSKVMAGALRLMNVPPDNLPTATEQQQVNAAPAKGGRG
# TEST METHOD NOTES: Bocillin-FL competition in whole cells
# Format: cell-based
# Design: gene ftsI; native full-length protein in intact P. aeruginosa PAO1 cells, Bocillin-FL labelled
# TEST PARAMETERS: read-out: Drug mg/L^a / CAR / TZB; intact PAO1 cells, 30 min incubation; covalent
Report as a plain number; the unit µM is understood.

* C[C@]1(Cn2ccnn2)[C@H](C(=O)O)N2C(=O)C[C@H]2S1(=O)=O | 13.4

Next:
INPUT: What value of IC50 has been reported for the following compound? CC1(C)S[C@@H]2[C@H](NC(=O)C(C(=O)O)c3ccccc3)C(=O)N2[C@H]1C(=O)O (some centres unmarked)
OUTPUT: 9.01

* * *

# TARGET OR SYSTEM: PBP5 (Pseudomonas aeruginosa, UniProt G3XD74)
# Construct: gene dacC; native full-length protein in intact P. aeruginosa PAO1 cells, Bocillin-FL labelled
# Sequence (G3XD74 entry or part of it): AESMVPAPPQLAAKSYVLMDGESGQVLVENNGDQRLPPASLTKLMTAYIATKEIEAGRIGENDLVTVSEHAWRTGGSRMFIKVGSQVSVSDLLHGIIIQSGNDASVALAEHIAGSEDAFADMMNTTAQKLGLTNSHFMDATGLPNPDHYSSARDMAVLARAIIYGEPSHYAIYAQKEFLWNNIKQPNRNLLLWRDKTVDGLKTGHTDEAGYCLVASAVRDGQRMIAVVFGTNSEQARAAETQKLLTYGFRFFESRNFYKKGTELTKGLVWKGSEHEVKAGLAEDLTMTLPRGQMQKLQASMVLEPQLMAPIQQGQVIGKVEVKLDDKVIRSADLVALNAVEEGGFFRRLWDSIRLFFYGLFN
# TEST METHOD NOTES: Bocillin-FL competition in whole cells
# Type: cell-based
# TEST PARAMETERS: read-out: IPM / FEP; intact PAO1 cells, 30 min incubation; covalent
MEASUREMENT NAME: IC50 (nM)
Report as a plain number; the unit nM is understood.

INPUT: Enter reported IC50 observed with PBP5 (Pseudomonas aeruginosa, UniProt G3XD74) for C[C@@H](O)[C@H]1C(=O)N2C(C(=O)O)=C(SCCN=CN)C[C@H]12
OUTPUT: 200

* * *

# TARGET OR SYSTEM: PBP5 (Pseudomonas aeruginosa, UniProt G3XD74)
# Construct: gene dacC; native full-length protein in intact P. aeruginosa PAO1 cells, Bocillin-FL labelled
# TEST METHOD NOTES: Bocillin-FL competition in whole cells
# Type: cell-based
# TEST PARAMETERS: read-out: Drug mg/L^a / TIC / REL; intact PAO1 cells, 30 min incubation; covalent
As shown below, each of these compounds has a reported IC50 value.
Report as a plain number; the unit µM is understood.

- CC1(C)S[C@@H]2[C@H](NC(=O)[C@H](C(=O)O)c3ccsc3)C(=O)N2[C@H]1C(=O)O [ticarcillin]: 682

Next:
INPUT: What value of IC50 has been reported for the following compound? O=C(NC1CCNCC1)[C@@H]1CC[C@@H]2CN1C(=O)N2OS(=O)(=O)O [relebactam]
OUTPUT: 81.7

* * *

# TARGET OR SYSTEM: PBP4 (Pseudomonas aeruginosa)
# Construct: gene PA3047; native full-length protein in intact P. aeruginosa PAO1 cells, Bocillin-FL labelled
# Sequence (Q9HZG1 entry or part of it): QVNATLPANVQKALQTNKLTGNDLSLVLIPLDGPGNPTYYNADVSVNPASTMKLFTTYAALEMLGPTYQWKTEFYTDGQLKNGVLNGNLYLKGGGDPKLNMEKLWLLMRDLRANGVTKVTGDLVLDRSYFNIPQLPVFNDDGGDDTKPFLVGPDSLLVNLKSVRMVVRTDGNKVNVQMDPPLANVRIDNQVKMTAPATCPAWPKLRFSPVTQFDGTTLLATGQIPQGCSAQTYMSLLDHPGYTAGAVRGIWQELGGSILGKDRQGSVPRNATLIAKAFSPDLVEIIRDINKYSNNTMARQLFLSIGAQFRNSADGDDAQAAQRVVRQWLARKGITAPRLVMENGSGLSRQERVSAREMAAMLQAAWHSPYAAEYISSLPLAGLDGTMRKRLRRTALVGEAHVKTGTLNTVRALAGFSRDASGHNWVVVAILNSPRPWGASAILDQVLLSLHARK
# TEST METHOD NOTES: Bocillin-FL competition in whole cells
# Type: cell-based
# TEST PARAMETERS: read-out: IPM / FEP; intact PAO1 cells, 30 min incubation; covalent
As shown below, each of these compounds has a reported pIC50 value.
// pIC50 here means minus log10 of the molar concentration (mol/L)

• C[C@@H](O)[C@H]1C(=O)N2C(C(=O)O)=C(SCCN=CN)C[C@H]12 [imipenem] = 7.48

INPUT: What value of pIC50 has been reported for the following compound? CO/N=C(\C(=O)N[C@@H]1C(=O)N2C(C(=O)[O-])=C(C[N+]3(C)CCCC3)CS[C@H]12)c1csc(N)n1 [cefepime]
OUTPUT: 6.28

* * *

# TARGET OR SYSTEM: PBP3 (Pseudomonas aeruginosa)
# TEST METHOD NOTES: Bocillin-FL competition in whole cells
# Type: cell-based
# Set-up: gene ftsI; native full-length protein in intact P. aeruginosa PAO1 cells, Bocillin-FL labelled
# TEST PARAMETERS: read-out: Drug mg/L^a / ATM; intact PAO1 cells, 30 min incubation; covalent
MEASUREMENT NAME: IC50 (µM)
Report as a plain number; the unit µM is understood.

INPUT: What value of IC50 has been reported for the following molecule? C[C@H]1[C@H](NC(=O)/C(=N\OC(C)(C)C(=O)O)c2csc(N)n2)C(=O)N1S(=O)(=O)O
OUTPUT: 1.75

All figures here come from paper PMC12802951.
